# credit: ChEMBL document CHEMBL6121044

Assay info: Half life in male ICR mouse at 2 mg/kg, iv measured upto 24 hrs by LC-MS/MS analysis
Format: ADME, organism-based
Condition parameters: in vivo
Can you tell me half-life for the items I'm about to list?
State the value, then name its unit.

>>> print(df.to_string())
                      smiles_representation    readout  meas_value
0  [2H]C([2H])([2H])NC1=NC(=O)[C@]2(CCc3ncccc32)c2cc(C(F)(F)F)ccc21  half-life      2.52 h

*Q* Request the reported half-life associated with [2H]C([2H])([2H])NC1=NC(=O)[C@]2(CCc3ncccc32)c2cc(C(C)(F)F)ccc21
*A* 1.94 h

###

Please provide measured Vd for the entries that follow.
Assay info: Volume of distribution at steady state in beagle dog at 2 mg/kg, iv measured upto 24 hrs upto 24 hrs by LC-MS/MS analysis
Format: ADME, organism-based, Canis lupus familiaris
Condition parameters: in vivo, read-out: Vdss
One number for each entry, in L/kg.

In [3]: df
Out[3]:
                      smiles_representation  readout  readout_unit  meas_value
0  [2H]C([2H])([2H])NC1=NC(=O)[C@]2(CCc3ncccc32)c2cc(C(F)(F)F)ccc21       Vd          L/kg        1.14

Let's switch to this compound now.
*Q* Can you look up the measured Vd of [2H]C([2H])([2H])NC1=NC(=O)[C@]2(CCc3ncccc32)c2cc(C(C)(F)F)ccc21 for me?
*A* 1.14

###

Assay info: Microsomal metabolic stability in Cynomolgus monkey liver microsomes assessed as half life
Assay type: ADME, Macaca fascicularis, Microsome
Readout: half-life

>>> df
                      smiles_representation  meas_value
0  [2H]C([2H])([2H])NC1=NC(=O)[C@]2(CCc3ncccc32)c2cc(C(F)(F)F)ccc21     > 3.1 h

Consider the record given below.
*Q* Form field: reported half-life of [2H]C([2H])([2H])NC1=NC(=O)[C@]2(CCc3ncccc32)c2cc(C(C)(F)F)ccc21
*A* > 3.1 h

###

Experimental target: S-adenosylmethionine synthase isoform type-2 (Homo sapiens)
Assay info: Inhibition of MAT2A (unknown origin) assessed as release of inorganic phosphate using ATP/L-methionine pre-incubated for 30 mins followed by substrate addition measured after 2.5 hrs by colorimetric assay
For each record, write down the corresponding pIC50.
Give bare numbers, as −log10 of the molar value.

Example results:
>>> print(df.to_string())
                                   compound  readout  meas_value
0  CNC1=NC(=O)C(C)(c2ccccc2)c2nc(C(F)(F)F)ccc21 (stereo not drawn)    pIC50        7.24
1  CNC1=NC(=O)C2(CCc3ncccc32)c2cc(C3CC3)ncc21 (stereo not drawn)    pIC50        7.33

*Q* Consider the compound CNC1=NC(=O)C2(CCc3ncccc32)c2cc(C(C)(F)F)ccc21 (stereo not drawn) and give its measured pIC50.
*A* 8.05

###

Experimental target: S-adenosylmethionine synthase isoform type-2 (Homo sapiens, UniProt P31153)
Sequence (P31153 whole entry, canonical isoform): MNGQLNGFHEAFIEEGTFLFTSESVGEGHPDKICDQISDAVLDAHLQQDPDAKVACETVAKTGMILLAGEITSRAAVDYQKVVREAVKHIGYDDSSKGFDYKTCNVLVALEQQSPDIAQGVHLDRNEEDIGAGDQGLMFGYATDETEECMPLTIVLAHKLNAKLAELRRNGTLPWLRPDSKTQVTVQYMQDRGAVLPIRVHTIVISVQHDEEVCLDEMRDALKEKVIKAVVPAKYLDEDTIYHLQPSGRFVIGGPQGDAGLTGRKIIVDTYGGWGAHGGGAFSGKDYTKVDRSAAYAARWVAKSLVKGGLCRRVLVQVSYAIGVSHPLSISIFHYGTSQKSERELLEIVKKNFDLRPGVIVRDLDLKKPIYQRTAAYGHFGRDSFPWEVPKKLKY
Assay info: Inhibition of MAT2A (unknown origin) assessed as release of inorganic phosphate using ATP/L-methionine pre-incubated for 30 mins followed by substrate addition measured after 2.5 hrs by colorimetric assay
I'd be grateful if you could share measured pIC50 for these entries.
Numbers only, as −log10 of the molar value.

>>> print(df.to_string())
                                   molecule  meas_value
0  [2H]C([2H])([2H])NC1=NC(=O)[C@]2(CCc3ncccc32)c2cc(C(C)(F)F)c(F)cc21        8.40

State recorded pIC50 for all listed molecules.
1. CNC1=NC(=O)C2(CCc3ccccc32)c2nc(C(F)(F)F)ccc21 (stereo not drawn)
2. O=C1N=C(NC2CC(F)(F)C2)c2ccc(C(F)(F)F)cc2C12CCc1ncccc12 (racemic)

*A*
1. 8.15
2. 8.30

###

Assay info: Lipophilicity, log D of compound at pH 7.4 byHPLC method
Format: physicochemical
Condition parameters: buffer
Would you kindly list logD for each of these molecules?
Give bare numbers.

Need logD for each of these molecules.
1. O=C1N=C(NCC(F)(F)F)c2ccc(C(F)(F)F)cc2C12CCc1ncccc12 (racemic)
2. [2H]C([2H])([2H])NC1=NC(=O)[C@]2(CCc3ncccc32)c2cc(C3CC3)c(F)cc21
3. C=C(c1ccc2c(c1)C1(CCc3ncccc31)C(=O)N=C2NC)C(F)(F)F (stereo unspecified)
4. CNC1=NC(=O)C2(CCc3ncccc32)c2cc(C(F)(F)F)ccc21 (racemic)

*A*
1: 2.73; 2: 2.2; 3: 2.4; 4: 1.83

Go through the items and report each one's logD.
1. CNC1=NC(=O)C2(CCc3ncccc32)c2cc(C3CC3)ncc21 (stereo unspecified)
2. CNC1=NC(=O)C2(CCc3ncccc32)c2cc(C3CC3)cc(F)c21 (stereo unspecified)
3. O=C1N=C(NC2CC2)c2ccc(C(F)(F)F)cc2C12CCc1ncccc12 (racemic)
4. CNC1=NC(=O)C2(CCc3ncccc32)c2cc(OC(F)F)ccc21 (stereo unspecified)
5. CNC1=NC(=O)C2(CCc3ncccc32)c2cc(C(C)(F)F)ccc21 (stereo unspecified)

*A*
1. 1.1
2. 2.21
3. 2.77
4. 1.36
5. 1.57

# batch: return logD for each of the 2 molecules below
1. [2H]C([2H])([2H])NC1=NC(=O)C2(CCc3ncccc32)c2cc(C(F)(F)F)ccc21 (racemic)
2. CNC1=NC(=O)C2(CCc3ncccc32)c2cc(C3CC3)c(F)cc21 (stereo unspecified)

*A*
[1.82, 2.24]

###

I'd appreciate it if you could supply IC50 values for the items below.
Experimental target: S-adenosylmethionine synthase isoform type-2 (Homo sapiens)
Assay info: Inhibition of MAT2A (unknown origin) assessed as release of inorganic phosphate using ATP/L-methionine pre-incubated for 30 mins followed by substrate addition measured after 2.5 hrs by colorimetric assay

Recorded IC50, per entry:
                                   compound  meas_value
0  CNC1=NC(=O)C2(OCc3ccccc32)c2nc(C(F)(F)F)ccc21 (stereo not drawn)   > 3000 nM
1  [2H]C([2H])([2H])NC1=NC(=O)[C@]2(CCc3ncccc32)c2cc(C3CC3)c(F)cc21        4 nM

--- query ---
*Q* Which measured IC50 value corresponds to O=C1N=C(NC2COC2)c2ccc(C(F)(F)F)cc2C12CCc1ncccc12 (racemic) ?
*A* > 3000 nM
